Test system: MDA-MB-435 melanoma
PROTOCOL_DETAILS: NCI-60 one-dose screen, 48 h
EXPERIMENTAL_SETUP: 10 µM unless noted
Compounds without any hit were thinned out: in the full panel of roughly 83,000, 20% have a hit. Active and inactive are the calls of the source. The calls were made as follows: active = growth percent below 10; inactive = the rest.
Mark one answer only. Choices: true (1) for active, false (0) for inactive

Hello, I am checking results. What call was entered for `CCCCn1c2cc(OCc3cn(-c4ccc(Cl)cc4)nn3)ccc2c2ccnc(C)c21` ?
false (0)

Hello, I am checking results. What call was entered for `N#Cc1c(-c2ccc(F)cc2)c(C#N)c2c(C#N)c(N)nn2c1N` ?
false (0)

Hello, I am checking results. What call was entered for `COc1ccc2[nH]c(=O)c(/C=C/C(=O)c3ccccc3OC)cc2c1` ?
true (1)

Hello, I am checking results. What call was entered for `CC1CCN(CCCCCOc2ccc3oc4cc(Cl)ccc4c(=O)c3c2)CC1` ?
true (1)

Hello, I am checking results. What call was entered for `Oc1ccc(CNNc2ccnc3c(O)cccc23)c2cccnc12` ?
false (0)

---
Hello, I am checking results. What call was entered for `C=C1C(=O)O[C@H]2[C@H]1CC/C(C=Nc1c(N)cc(C(F)(F)F)cc1Br)=C\CC[C@@]1(C)O[C@@H]21` ?
true (1)

Hello, I am checking results. What call was entered for CC(=O)OCC1OC(OC2C(COC(C)=O)OC(OCCC[S-])C(OC(C)=O)C2OC(C)=O)C(OC(C)=O)C(OC(C)=O)C1OC(C)=O.[Au+].c1ccc(CN2[CH-]N(Cc3ccccc3)C(c3ccccc3)=C2c2ccccc2)cc1 (stereo not drawn) ?
false (0)

Hello, I am checking results. What call was entered for `CC(=O)Nc1ccc2c(c1)Cc1cc(F)ccc1-2` ?
false (0)

Origin of measurements: PubChem BioAssay (NCI)
